Tested on: MDA-MB-436
Assay: normalised response (% of control), CellTiter-Glo; higher = more viable cells (100 = DMSO, 0 = benzethonium chloride kill control)
Settings: incubation time: 72 h
endpoint: normalised response (%)
Answer with a number only, understood to be in %.

>>> result("CC[C@H](C)C(=O)O[C@H]1C[C@H](O)C=C2C=C[C@H](C)[C@H](CC[C@@H](O)C[C@@H](O)CC(=O)O)[C@H]21 [Pravastatin] (1 nM)")
99.6
>>> result("Cc1cnc(NC(=O)Nc2cc(Br)c(C)cc2OC[C@@H]2CNCCO2)cn1 [Rabusertib] (1 nM)")
104
>>> result("Nc1ncn([C@H]2C[C@H](O)[C@@H](CO)O2)c(=O)n1 [Decitabine] (10 nM)")
97.3
>>> result("CC(=O)Nc1cccc(-n2c(=O)n(C3CC3)c(=O)c3c(Nc4ccc(I)cc4F)n(C)c(=O)c(C)c32)c1 [Trametinib] (0.025 nM)")
100
>>> result("CCCS(=O)(=O)Nc1ccc(F)c(C(=O)c2c[nH]c3ncc(-c4ccc(Cl)cc4)cc23)c1F [Vemurafenib] (1000 nM)")
94.2

Consider COc1cc2nccc(Oc3ccc(NC(=O)Nc4cc(C)on4)c(Cl)c3)c2cc1OC [Tivozanib] (1 nM) . Its measured normalised response is 83.2

Record C[C@H]1C[C@@H]2[C@H]([C@@H](O)C[C@@]3(C)[C@H]2CC[C@]3(O)C(=O)CO)[C@@]2(C)C=CC(=O)C=C12 [Methylprednisolone] (1000 nM) . Reported normalised response: 105

Documented normalised response of O=C(Cc1ccc(-c2ccc(OCCN3CCOCC3)cc2)cn1)NCc1ccccc1 [KX2-391] (10 nM) : 98

Reported normalised response of COc1cc([C@@H]2c3cc4c(cc3[C@@H](O[C@@H]3O[C@@H]5CO[C@@H](c6cccs6)O[C@H]5[C@H](O)[C@H]3O)[C@H]3COC(=O)[C@H]23)OCO4)cc(OC)c1O [Teniposide] (1000 nM) : 36.6

Reported normalised response of C=CC(=O)N1CCC[C@@H](n2nc(-c3ccc(Oc4ccccc4)cc3)c3c(N)ncnc32)C1 [Ibrutinib] (0.1 nM) : 96.8
